Recorded values, source patent US20140221622A1.

Each item that follows carries a reported Inhibition of IM-95 proliferation (HGF-dependent) IC50.
- TGT: c-Met on tumor cell lines (A549, IM-95, SNU-5, SNU-620) (UniProt P08581 25-1390, limits assumed)
- Sequence (P08581 25-1390 limits assumed): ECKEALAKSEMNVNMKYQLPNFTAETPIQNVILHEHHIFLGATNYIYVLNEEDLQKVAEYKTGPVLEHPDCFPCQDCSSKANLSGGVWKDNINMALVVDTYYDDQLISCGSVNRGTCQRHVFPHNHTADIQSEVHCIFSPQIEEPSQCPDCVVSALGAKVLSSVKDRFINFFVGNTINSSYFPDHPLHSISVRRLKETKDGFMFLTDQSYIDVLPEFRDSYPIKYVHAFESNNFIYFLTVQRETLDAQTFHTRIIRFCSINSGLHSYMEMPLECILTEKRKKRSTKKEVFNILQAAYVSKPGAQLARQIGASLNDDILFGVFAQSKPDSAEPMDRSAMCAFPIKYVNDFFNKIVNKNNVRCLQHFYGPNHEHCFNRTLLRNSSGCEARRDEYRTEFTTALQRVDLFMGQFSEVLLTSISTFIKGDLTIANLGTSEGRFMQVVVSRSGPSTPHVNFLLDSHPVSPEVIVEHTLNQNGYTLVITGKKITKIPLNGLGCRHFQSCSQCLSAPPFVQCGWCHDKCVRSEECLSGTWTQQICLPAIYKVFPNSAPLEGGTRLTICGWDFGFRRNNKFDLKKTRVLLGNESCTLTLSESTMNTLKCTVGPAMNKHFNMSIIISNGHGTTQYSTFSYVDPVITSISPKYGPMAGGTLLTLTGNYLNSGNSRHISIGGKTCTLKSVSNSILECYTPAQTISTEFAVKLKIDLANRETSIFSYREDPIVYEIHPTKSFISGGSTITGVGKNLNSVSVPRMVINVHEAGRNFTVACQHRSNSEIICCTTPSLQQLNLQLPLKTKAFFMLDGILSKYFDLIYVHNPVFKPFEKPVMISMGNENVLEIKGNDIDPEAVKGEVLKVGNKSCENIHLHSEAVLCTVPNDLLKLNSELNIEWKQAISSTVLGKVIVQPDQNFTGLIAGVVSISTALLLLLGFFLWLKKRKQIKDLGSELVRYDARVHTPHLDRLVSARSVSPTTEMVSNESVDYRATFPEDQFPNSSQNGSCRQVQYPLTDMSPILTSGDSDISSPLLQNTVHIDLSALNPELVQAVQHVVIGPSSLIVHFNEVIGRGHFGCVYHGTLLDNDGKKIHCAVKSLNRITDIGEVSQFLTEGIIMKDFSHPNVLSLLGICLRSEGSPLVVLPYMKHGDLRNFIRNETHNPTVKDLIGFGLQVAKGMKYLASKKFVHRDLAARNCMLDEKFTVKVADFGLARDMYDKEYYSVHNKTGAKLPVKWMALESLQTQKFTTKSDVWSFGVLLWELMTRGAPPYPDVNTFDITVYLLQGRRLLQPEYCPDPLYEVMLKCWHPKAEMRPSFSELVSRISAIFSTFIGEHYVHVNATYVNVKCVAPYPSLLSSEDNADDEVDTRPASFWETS
- ASSAY METHOD TEXT: cell-based or functional assay
PARAMETER: Inhibition of IM-95 proliferation (HGF-dependent) IC50 (µM)

{"BINDER": "MetMAb1 (antibody, V domains shown, also called monovalent c-Met antibody MetMAb1) VH: EVQLVESGGGLVQPGGSLRLSCAASGYTFTSYWLHWVRQAPGKGLEWVGMIDPSNSDTRFNPNFKDRFTISADTSKNTAYLQMNSLRAEDTAVYYCATYRSYVTPLDYWGQGTLVTVSS VL: DIQMTQSPSSLSASVGDRVTITCKSSQSLLYTSSQKNYLAWYQQKPGKAPKLLIYWASTRESGVPSRFSGSGSGTDFTLTISSLQPEDFATYYCQQYYAYPWTFGQGTKVEIKR", "MEASURED NUMBER": 0.0174}
{"BINDER": "anti-cMet h5D5 Fab-body (antibody, human IgG1, kappa, V domains shown, Monovalent Fab-Fc heterodimer: LFc chain (VL-CL-linker-Fc knob) and HFc chain (VH-CH1-linker-Fc hole)) VH: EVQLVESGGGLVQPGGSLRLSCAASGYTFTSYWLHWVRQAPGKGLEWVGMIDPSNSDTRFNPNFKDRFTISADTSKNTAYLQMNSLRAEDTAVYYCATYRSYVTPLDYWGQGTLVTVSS VL: DIQMTQSPSSLSASVGDRVTITCKSSQSLLYTSSQKNYLAWYQQKPGKAPKLLIYWASTRESGVPSRFSGSGSGTDFTLTISSLQPEDFATYYCQQYYAYPWTFGQGTKVEIKR", "MEASURED NUMBER": 0.0128}
{"BINDER": "5D5 Fab (Fab, V domains shown) VH: QVQLQQSGPELVRPGASVKMSCRASGYTFTSYWLHWVKQRPGQGLEWIGMIDPSNSDTRFNPNFKDKATLNVDRSSNTAYMLLSSLTSADSAVYYCATYGSYVSPLDYWGQGTSVTVSS VL: DFMMSQSPSSLTVSVGEKVTVSCKSSQSLLYTSSQKNYLAWYQQKPGQSPKLLIYWASTRESGVPDRFTGSGSGTDFTLTITSVKADDLAVYYCQQYYAYPWTFGGGTKLELKR", "MEASURED NUMBER": 0.0557}
{"BINDER": "Anti-human c-Met antibody 5D5 (antibody, V domains shown, VH and VL are those cloned from hybridoma HB-11895 (5D5.11.6); also called bivalent antibody 5D5) VH: QVQLQQSGPELVRPGASVKMSCRASGYTFTSYWLHWVKQRPGQGLEWIGMIDPSNSDTRFNPNFKDKATLNVDRSSNTAYMLLSSLTSADSAVYYCATYGSYVSPLDYWGQGTSVTVSS VL: DFMMSQSPSSLTVSVGEKVTVSCKSSQSLLYTSSQKNYLAWYQQKPGQSPKLLIYWASTRESGVPDRFTGSGSGTDFTLTITSVKADDLAVYYCQQYYAYPWTFGGGTKLELKR", "MEASURED NUMBER": 0.0058}
